B1: Proto-oncogene vav, residues 782 to 842; numbered along this chain, P15498 (parent)
chain: KYFGTAKARYDFCARDRSELSLKEGDIIKILNKKGQQGWWRGEIYGRVGWFPANYVEEDYS

variants of: B1; assay: abundance fitness (aPCA) (normalised: wild type 0, dead -1); higher = more abundant; growth selection in yeast, the domain comes from the species named; conditions: Homo sapiens
Mark YES for reported abundance fitness of -0.3 or greater; mark NO for anything smaller.

| variantLabel | group |
| --- | --- |
| V56I | NO |
| N32R | YES |
| Y2I | YES |
| N32E | YES |
| L22P | NO |
| G38N | NO |
| C13S | YES |
| D26P | NO |
| Q37C | YES |
| I44N | YES |
| E58H | NO |
| F12P | NO |
| D59N | YES |
| S21N | NO |
| S18T | YES |
| W50L | NO |
| D16F | NO |
| E58L | YES |
| Q36A | YES |
| Y45G | YES |
| I44F | YES |
| E19D | NO |
| Y2T | YES |
| I27W | NO |
